Hi there, I'd appreciate the recorded growth inhibition for every entry that follows.
experiment: NCI Yeast Anticancer Drug Screen. Data for the cln2 rad14 strain (AID 165);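 further: 0% = growth equal to vehicle treated cultures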; conditions: S. cerevisiae cln2 rad14 strain, at 50.0 µM, stronger effect = higher value
This is part of a sample that, as a whole, favours compounds with a hit. Of some 79,000 tested, about 15% had one in any assay.
Hi! Could you send only the number? It should be in %, unit omitted.

Given the compound `COc1ccc(OC)c(CSc2ccc(OC)c(OC)c2)c1` , write its reported growth inhibition.
13.8

Given the compound `Cn1cnc2ncnc(NCc3ccc(Cl)c(Cl)c3)c21` , write its reported growth inhibition.
-21.2

Given the compound `COc1ccc(C(=O)/C=C/c2ccc(OCCCCCCCCCCOc3ccc(/C=C/C(=O)c4ccc(OC)cc4)cc3)cc2)cc1` , write its reported growth inhibition.
-15.2

Given the compound COc1cccc(/S(C)=N/S(=O)(=O)c2ccc(C)cc2)c1 (stereo not given) , write its reported growth inhibition.
-6.65

Given the compound `COc1ccc(-c2cc3cc(Cl)cc(Cl)c3oc2=O)cc1OC` , write its reported growth inhibition.
-4.85

Given the compound COC(=O)C(C)Oc1ccccc1 (stereo not given) , write its reported growth inhibition.
-4.8

Given the compound CC1COC2(CCCCC2)O1 (stereo not given) , write its reported growth inhibition.
-37

Given the compound `CCN(CC)CCOC(=O)Nc1c(Cl)cccc1Cl` , write its reported growth inhibition.
9.4

Given the compound `CC(C)C(=O)C(F)(F)F` , write its reported growth inhibition.
6.45

Given the compound `Cc1nn(C(=O)c2cccnc2)c(-c2ccccc2)c1N=Nc1ccc(S(=O)(=O)Nc2ncccn2)cc1` , write its reported growth inhibition.
33

Given the compound `O=C(O)c1c(Br)c(Br)c(Br)c(Br)c1C(=O)Nc1ccc([N+](=O)[O-])cc1` , write its reported growth inhibition.
4.75

Given the compound `CCCCn1cnc2c(=S)nc[nH]c21` , write its reported growth inhibition.
-11.6

Given the compound COc1ccc2c(c1O)C1(CCN(C)C)CC(=O)CCC1C=C2 (stereo not given) , write its reported growth inhibition.
6.2

Given the compound Cc1cc(Cc2c(F)c(F)c(C(c3cc(C)no3)c3c(F)c(F)c(F)c(F)c3F)c(F)c2F)on1 (stereo not given) , write its reported growth inhibition.
-58.8

Given the compound `CCn1c2ccccc2c2c(-c3ccccc3)cc3c(c21)C(=O)N(c1ccccc1)C3=O` , write its reported growth inhibition.
-54

Given the compound `Cc1cc(=O)c2cc(Br)cc(Br)c2[nH]1` , write its reported growth inhibition.
0.05

Given the compound CCC(C(=O)OC)C1CCCCC1 (stereo not given) , write its reported growth inhibition.
-7.65

Given the compound `C/C(=N/NC(N)=O)C1=CCCC1` , write its reported growth inhibition.
11

Given the compound `COc1ccc(CCNC(=S)NC(=O)c2ccc(Cl)c(Cl)c2)cc1OC` , write its reported growth inhibition.
49.5

Given the compound `N=C(N)SCc1cccc(-c2nc3ccccc3c(=O)o2)c1` , write its reported growth inhibition.
5.95

Given the compound NC(CO)C(O)c1ccc([N+](=O)[O-])cc1 (stereo not given) , write its reported growth inhibition.
-7.25

Given the compound `COc1cc(C=O)c(-c2c(C=O)ccc3c2OCO3)c(OC)c1OC` , write its reported growth inhibition.
18.1

Given the compound OC1CCCC2CCCC12 (stereo not given) , write its reported growth inhibition.
15.4

Given the compound `CNC(=S)ON1CCCCC1` , write its reported growth inhibition.
-7.95

Given the compound `NC(N)=Nc1cccc2c1CC=CC2` , write its reported growth inhibition.
-5.7

====

Hi there, I'd appreciate the recorded growth inhibition for every entry that follows.
Assay: NCI Yeast Anticancer Drug Screen. Data for the bub3 strain (AID 167)
Conditions: S. cerevisiae bub3 mutant strain, at 50.0 µM, stronger effect = higher value
Description: Growth inhibition of yeast strains with defined genetic alterations is measured as a screen for potential anti-cancer activity. Selected strains with alterations in DNA damage repair or cell cycle control were exposed to compounds and growth inhibition was measured relative to vehicle treated controls. The strain used in this assay is bub3
The panel holds about 79,000 compounds, 15% with a hit somewhere; the sample as a whole holds those more often.
Hi! Could you send only the number? It should be in %, unit omitted.

Given the compound COc1cc([C@@H]2OC(=O)C3C2C(=O)O[C@H]3c2ccc(O)c(OC)c2)ccc1O (some centres undefined) , write its reported growth inhibition.
0.55

Given the compound `C(=C1\COC(c2ccccc2)=N1)/c1ccc2c(c1)OCO2` , write its reported growth inhibition.
-5

Given the compound `CC(=O)[CH-]C(=O)c1ccccc1.CC(=O)[CH-]C(=O)c1ccccc1.CC[O-].O=C1C=C([O-])C(=O)c2ccccc21.[Ti+4]` , write its reported growth inhibition.
59.9

Given the compound `S=C1N=C(Cl)/C(=C\c2ccco2)N1` , write its reported growth inhibition.
15.9

Given the compound CCOC(=O)c1cc(O)cc(=O)n1C1OC(COC(=O)c2ccccc2)C(OC(=O)c2ccccc2)C1OC(=O)c1ccccc1 (centres undefined) , write its reported growth inhibition.
-9.15

Given the compound `CON(C)S(=O)(=O)c1ccc(Cl)cc1` , write its reported growth inhibition.
-2.25

Given the compound C=C1C(=O)C23C(O)CC4C5(C)CCCC4(C(O)OC5)C2C(OC(C)=O)CC1C3O (centres undefined) , write its reported growth inhibition.
-7.3

Given the compound `COc1cc(NS(=O)(=O)c2ccc(N)cc2)c2ncccc2c1` , write its reported growth inhibition.
4.5

Given the compound CC(COc1ccccc1)OC(=O)CCl (centres undefined) , write its reported growth inhibition.
-16.5

Given the compound `CC(=O)N(c1ccc(F)c(F)c1)c1ccc(F)c(F)c1` , write its reported growth inhibition.
19.6

Given the compound `O=C(O)C(Cc1ccsc1)C(=O)O` , write its reported growth inhibition.
-6.45

Given the compound `O=C(C1SCCCS1)N(O)c1ccccc1OCc1ccccc1` , write its reported growth inhibition.
0.95

Given the compound COc1ccc(-c2c(C(C)=O)c(-c3ccccc3)n(C3OC(CO)C(O)C(O)C3O)c(=S)c2C#N)cc1 (centres undefined) , write its reported growth inhibition.
1.3

Given the compound `CC(=O)c1ccc(CCCCc2ccc([N+](=O)[O-])cc2)cc1` , write its reported growth inhibition.
18.2

Given the compound `COc1cccc(-n2cnc3c(SC)ncnc32)c1` , write its reported growth inhibition.
19.1

Given the compound `Cn1c(=O)c2c(nc(/N=C/c3ccncc3)n2C)n(C)c1=O` , write its reported growth inhibition.
-16.8

Given the compound `Clc1ccccc1/C=C/c1ccnnc1` , write its reported growth inhibition.
1.35

Given the compound `Cc1ccc(CN(CCO)Cc2ccccc2)cc1` , write its reported growth inhibition.
43.1

Given the compound `Cc1ccc2ccc(C)nc2c1` , write its reported growth inhibition.
18.2

Given the compound `NC1=NC(=O)C2(CCCCC2)S1` , write its reported growth inhibition.
-8

Given the compound COc1cccc2c1C(c1ccc3ccccc3c1)OC2=O (centres undefined) , write its reported growth inhibition.
-25.4

Given the compound `Cc1cc2[nH]c3ccccc3n2c(=O)c1N=Nc1ccccc1` , write its reported growth inhibition.
7.05

Given the compound `Nc1nc2cc(COc3ccc(C(=O)O)cc3)ccc2nc1-c1ccccc1` , write its reported growth inhibition.
-26.2

Given the compound CCOC1CCC(C(C)=O)C(C#N)(C#N)C1(C#N)C#N (centres undefined) , write its reported growth inhibition.
-37.9

Given the compound C=C1CC2C(=O)N(c3ccccc3)C(=O)C2CC1n1[nH]c(=O)n(Cc2ccccc2)c1=O (centres undefined) , write its reported growth inhibition.
15.7

Given the compound `S=C(NC1CCCCC1)N1CCC(CCCC2CCN(C(=S)NC3CCCCC3)CC2)CC1` , write its reported growth inhibition.
-41.8

Given the compound c1ccc2c(c1)NC(SSC1Nc3ccccc3S1)S2 (centres undefined) , write its reported growth inhibition.
-11.1

Given the compound `COC(=O)CC[N+]1=CCC(c2ccccc2)(c2ccccc2)O1` , write its reported growth inhibition.
-15.9

Given the compound `CSc1ccc(NC(=O)Nc2ccc(Cl)cc2[N+](=O)[O-])cc1` , write its reported growth inhibition.
17.9

Given the compound CCCC(=O)OCC1OC(n2cc(F)c(=O)[nH]c2=O)CC1O (centres undefined) , write its reported growth inhibition.
6.65

Given the compound `O=c1[nH]nc(Sc2ccccc2)c2nncn12` , write its reported growth inhibition.
-4.7

Given the compound CCC(C)C(C)(O)CC (centres undefined) , write its reported growth inhibition.
-8.8

Given the compound `Brc1ccc(Br)s1` , write its reported growth inhibition.
7.5

Given the compound `O=C(O)COc1ccc(F)c(F)c1F` , write its reported growth inhibition.
-2.75

Given the compound `Cc1cc(C)c2cccc-2c(C)c1` , write its reported growth inhibition.
-4.9

Given the compound CCOc1ccccc1NC(=O)CC1Sc2ccccc2NC1=O (centres undefined) , write its reported growth inhibition.
3.85

Given the compound C/C=C/c1cc(C)cc(C)c1OC(C)CC (centres undefined) , write its reported growth inhibition.
-17.9

Given the compound CN1C(=O)C2(C=CCCC2)c2ccccc21 (centres undefined) , write its reported growth inhibition.
-0.5

Given the compound `CN1Cc2ccccc2C1` , write its reported growth inhibition.
17.4

Given the compound COC(=O)CNC(=O)Nc1cc(N2C(=O)ON3C2C(C)(C)N(O)C3(C)C)ccc1C (centres undefined) , write its reported growth inhibition.
15.2

Given the compound `Cc1cc(C)c(C#N)c(N)n1` , write its reported growth inhibition.
7.7

Given the compound `N#CCCCCN1CCOCC1` , write its reported growth inhibition.
-8.9

Given the compound CN1C(=O)N(C)C(N2CCCC2)c2c1nc1ccccn1c2=O (centres undefined) , write its reported growth inhibition.
-5

Given the compound CCOc1ccc(NC(=O)CC2SC(N)=NC2=O)cc1 (centres undefined) , write its reported growth inhibition.
-2.8

Given the compound COc1cc(CC2c3cccc(Oc4ccc(C)cc4)c3CCN2C)ccc1Oc1ccc(C)cc1 (centres undefined) , write its reported growth inhibition.
97.4

Given the compound `c1ccc2c[n+](CCCC[n+]3ccc4ccccc4c3)ccc2c1` , write its reported growth inhibition.
41.8

Given the compound COC1C=C(Br)C(=O)C(C)O1 (centres undefined) , write its reported growth inhibition.
21.2

Given the compound `Nc1ccc(N2N=C(N3CCCC3)CC2=O)cc1` , write its reported growth inhibition.
-12.7

Given the compound COc1cc(C2C3=C(COC3=O)Oc3cc4c(cc32)OCO4)cc(OC)c1OC(C)=O (centres undefined) , write its reported growth inhibition.
-8.3
